Attribution: patent USRE47150

Listed next: entries and their corresponding variant/wild-type.
Biological target: T1, human tissue factor pathway inhibitor (TFPI) (human, UniProt P10646 29-304, limits assumed)
T1 construct: bought; also called hTFPI; human TFPI
T1 sequence (looked up): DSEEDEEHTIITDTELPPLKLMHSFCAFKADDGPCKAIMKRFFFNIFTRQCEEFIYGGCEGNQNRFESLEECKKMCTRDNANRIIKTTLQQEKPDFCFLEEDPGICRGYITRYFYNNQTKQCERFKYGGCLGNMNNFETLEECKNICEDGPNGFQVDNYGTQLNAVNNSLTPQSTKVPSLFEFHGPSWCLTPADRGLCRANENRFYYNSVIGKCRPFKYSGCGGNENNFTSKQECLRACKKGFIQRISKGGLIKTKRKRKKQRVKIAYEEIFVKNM
Assay: competitive ELISA

Binder: 4B7 HC_D62R (Fab, V domains shown, also called 4B7-D62R) VH: QVQLQQSGPGLVKPSQTLSLTCAISGDSVSSNSAAWSWIRQSPGRGLEWLGIIYKRSKWYNRYAVSVKSRITINPDTSKNQFSLQLNSVTPEDTAVYYCARWHSDKHWGFDYWGQGTLVTVSS VL: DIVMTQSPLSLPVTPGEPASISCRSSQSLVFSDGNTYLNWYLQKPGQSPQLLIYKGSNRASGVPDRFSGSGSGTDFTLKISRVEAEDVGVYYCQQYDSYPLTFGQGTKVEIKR
variant/wild-type: 32.3 ratio

Give the reported variant/wild-type for this binder. 4B7 HC_Y112D (Fab, V domains shown) VH: QVQLQQSGPGLVKPSQTLSLTCAISGDSVSSNSAAWSWIRQSPGRGLEWLGIIYKRSKWYNDYAVSVKSRITINPDTSKNQFSLQLNSVTPEDTAVYYCARWHSDKHWGFDDWGQGTLVTVSS VL: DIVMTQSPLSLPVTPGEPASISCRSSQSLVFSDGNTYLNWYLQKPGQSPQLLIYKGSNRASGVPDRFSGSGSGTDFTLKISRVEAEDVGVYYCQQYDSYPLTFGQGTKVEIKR
2.9 ratio
